- Test system: Escherichia coli
- assay notes: Antibacterial activity against Escherichia coli ATCC 11775 assessed as inhibition of bacterial growth incubated for 24 hrs by spectrophotometry
- Assay type: functional, organism-based
- measurement context: ATCC 11775, 24 h
pIC50: −log10 of the molar value.
Below: a set of entries, each annotated with reported pIC50.

molecule	pIC50
C/C1=C\[C@@H](C)[C@H](O[C@@H]2CC[C@@H](O)[C@@H](C)O2)C2=CC(=O)C(N)=C(NC(=O)C(C)C(=O)[C@@H](C)C1)C2=O (stereo partly drawn)	< 4.52
C/C1=C\[C@@H](C)[C@H](O)C2=CC(=O)C(N)=C(NC(=O)C(C)C(=O)[C@@H](C)C1)C2=O (stereo partly drawn)	< 4.52
C/C1=C\[C@@H](C)[C@H](O)c2cc(O)cc3c2O[C@](C)(C(=O)N3)C(=O)[C@H](C)C1	< 4.52
